Values were extracted from ChEMBL document CHEMBL3414455.

Assay: Cytotoxicity against human KB cells assessed as growth inhibition at 10 uM after 72 hrs by MTS assay relative to control
Assay type: cell-based
Conditions: read-out: GI
We use 30% as the dividing line for inhibition at 72 h, 10 µM: on or above the line is Y, below is N.

COMPOUND STRING: OB(O)c1ccc(SCc2ccccc2)nc1
LABEL VALUE: N
//
COMPOUND STRING: OB(O)c1ccc(Oc2ccccc2)nc1
LABEL VALUE: N
//
COMPOUND STRING: OB(O)c1cncc(OCc2ccccc2)c1
LABEL VALUE: N
//
COMPOUND STRING: CCCCCCOc1ccc(B(O)O)cn1
LABEL VALUE: Y
//
COMPOUND STRING: CCCOc1ccc(B(O)O)cn1
LABEL VALUE: N
//
COMPOUND STRING: CCCCCOc1ccc(B(O)O)cn1
LABEL VALUE: N
//
COMPOUND STRING: OB(O)c1ccc(OCCCCCc2ccccc2)nc1
LABEL VALUE: Y
//
COMPOUND STRING: OB(O)c1ccc(OCc2ccc3c(c2)OCO3)nc1
LABEL VALUE: N
//
COMPOUND STRING: CCCCCCCCCCCCOc1ccc(B(O)O)cn1
LABEL VALUE: N
//
COMPOUND STRING: CCCCOc1ccc(B(O)O)cn1
LABEL VALUE: N
//
COMPOUND STRING: CCCCCCCOc1ccc(B(O)O)cn1
LABEL VALUE: Y
//
COMPOUND STRING: OB(O)c1ccc(OCc2ccc(F)cc2)nc1
LABEL VALUE: N
//
COMPOUND STRING: OB(O)c1ccc(OCCCCc2ccccc2)nc1
LABEL VALUE: N
//
COMPOUND STRING: OB(O)c1ccc(OCCCCCCCc2ccccc2)nc1
LABEL VALUE: Y
//
COMPOUND STRING: COc1cc(COc2ccc(B(O)O)cn2)cc(OC)c1OC
LABEL VALUE: N
//
COMPOUND STRING: OB(O)c1ccc(OCc2ccc(Cl)c(Cl)c2)nc1
LABEL VALUE: Y
//
COMPOUND STRING: OB(O)c1ccc(OCCCCCCc2ccccc2)nc1
LABEL VALUE: Y
//
COMPOUND STRING: Cc1cc(B(O)O)cnc1OCc1ccccc1
LABEL VALUE: N
//
COMPOUND STRING: OB(O)c1ccc(OCc2ccc(Cl)cc2)nc1
LABEL VALUE: Y
//
COMPOUND STRING: OB(O)c1ccc(OCCCc2ccccc2)nc1
LABEL VALUE: Y
//
COMPOUND STRING: OB(O)c1ccc(Oc2ccc(Cl)cc2Cl)nc1
LABEL VALUE: N
//
COMPOUND STRING: OB(O)c1ccc(NCc2ccccc2)nc1
LABEL VALUE: N
//
COMPOUND STRING: OB(O)c1ccc(OCCc2ccccc2)nc1
LABEL VALUE: N
